Assign activity at 100 µM to each entry below.
# Test system: M. mycetomatis genome strain MM55
# assay_method_text: CLSI M38-A2 based in vitro susceptibility screening (XTT or resazurin), growth at fixed concentration
# Assay type: cell-based, Madurella mycetomatis
# experimental_conditions: Madurella mycetomatis, 100 uM, replicate 3, MM55; read-out: Percentage survival at 100um, 100 uM A
Answers are plain numbers, in %.

Solved cases (5 shown):
Consider `CCN1CCN(Cc2nc3ccc([N+](=O)[O-])cc3c(=O)n2-c2ccccc2F)CC1` . Its measured activity at 100 µM is 77.1

Value of measured activity at 100 µM for the entry `CCC[C@H](NC(=O)[C@@H]1[C@H]2CCC[C@H]2CN1C(=O)[C@@H](NC(=O)[C@@H](NC(=O)c1cnccn1)C1CCCCC1)C(C)(C)C)C(=O)C(=O)NC1CC1` : 71.1

The value of activity at 100 µM measured for the compound `CC(C)C(=O)N[C@H]1[C@H]([C@H](O)[C@H](O)CO)OC(C(=O)O)=C[C@@H]1N=[N+]=[N-]` turned out to be 74.4

activity at 100 µM reading for `CCCCc1ccc(-c2nc(C)c(C(=O)OC)s2)cc1` : 92.3

According to the records, this compound `Cn1c2ccccc2c(=O)c2c(O)cccc21` displays activity at 100 µM of 51.8

Give activity at 100 µM for all compounds that follow.
1. COc1ccc(CNC(=O)C2CCN([C@H](C)c3cccc4ccccc34)CC2)cc1
2. O=C(O)c1cc(-c2ccc(Br)cc2)nc2ccc(Cl)cc12
3. O=C(NCc1ccc(F)cc1)c1c(O)c2ncccc2[nH]c1=O
4. O=C(CSc1nnc(Br)n1-c1ccc(C2CC2)c2ccccc12)Nc1ccc(C(=O)O)cc1Cl
5. COc1ccc(C(C)(C)C)cc1NC(=O)C(=O)c1ccc(OCCN2CCOCC2)c2ccccc12
6. CNC(=O)C1O[C@@H](n2cnc3c(NCc4cccc(I)c4)nc(Cl)nc32)[C@H](O)[C@@H]1O (some centres unmarked)
7. COc1cc(C(C(=O)NC2CCCCC2)N(C(=O)Cc2c[nH]c3ccccc23)c2ccc(C(C)C)cc2)cc(OC)c1OC (centres unmarked)

Return:
1: 9.43; 2: 49.8; 3: 82.7; 4: 45.2; 5: 85.7; 6: 68.9; 7: 78.7

Take each entry in turn and give its activity at 100 µM.
1. CC(N)C12CC3CC(CC(C3)C1)C2 (centres unmarked)
2. C/C(=N\NC(=O)C1CC1c1ccccc1)c1ccc(NC(=O)c2ccco2)cc1 (centres unmarked)

Return:
1: 64; 2: 76.5

// input: 3 compounds below; output: activity at 100 µM for each
1. c1cnc(NCc2ccc(CNc3ncccn3)cc2)nc1
2. O=C(O)/C=C/C=C/c1cccc(Oc2cc(Cl)cc(Cl)c2)c1
3. CN1C(=O)C(c2ccccc2)C(=O)N(c2ccccc2)c2cc(C(F)(F)F)ccc21 (centres unmarked)

Return:
1. 98.8
2. 9.43
3. 78.1

---

Could you please report measured activity at 25 µM for the items listed next?
# Tested on: M. mycetomatis genome strain MM55
# assay_method_text: CLSI M38-A2 based in vitro susceptibility screening (XTT or resazurin), growth at fixed concentration
# Type: cell-based, Madurella mycetomatis
# experimental_conditions: Madurella mycetomatis, 25 uM, replicate A, M. mycetomatis MM55; read-out: Percentage survival at 25um, 25 um A
Numbers only, in %.

Take a look at these entries with their results.
Sure, the documented activity at 25 µM for `NS(=O)(=O)c1ccc(NC(=O)NC(c2ccccc2)c2ccccc2)cc1` is 95.1

The compound listed as `CC1(C)Cc2c(C#N)c(SCCc3ccccc3)nc(N3CCOCC3)c2CO1` has a reported activity at 25 µM of 67.7

get_value(item= `C(=C\c1nc2ccccc2[nH]1)/c1ccc2c(c1)OCO2` , readout=activity at 25 µM) returns 78.1

Look up activity at 25 µM for the entries below, preserving their order.
1. CC1CN(c2ncnc3c2c(-c2ccccc2)cn3-c2ccc(F)cc2)CC(C)O1 (stereo not drawn)
2. Nc1cc(N)c2nc(-c3ccccc3)c(Nc3ccc(F)cc3)nc2c1
3. CC(C)/N=c1\cc2n(-c3ccc(Cl)cc3)c3ccccc3nc-2cc1Nc1ccc(Cl)cc1

Return:
1. 69.5
2. 97.1
3. 77.2

Look up activity at 25 µM for the entries below, preserving their order.
1. Clc1cc2nc(C3CCNCC3)n(Cc3ccc(CNCCc4cnc[nH]4)cc3)c2cc1Cl
2. O=C(NCc1ccccc1Cl)c1cnc2ccccc2n1

Return:
1: 92.3; 2: 50.8

Reported activity at 25 µM of `Cc1onc(-c2ccccc2Cl)c1C(=O)N[C@@H]1C(=O)N2[C@@H]1SC(C)(C)[C@@H]2C(=O)O` : 60.8

---

# Test system: M. mycetomatis genome strain MM55
# assay_method_text: CLSI M38-A2 based in vitro susceptibility screening (XTT or resazurin), growth at fixed concentration
# Format: cell-based, Madurella mycetomatis
# experimental_conditions: Madurella mycetomatis, 100 uM, first replicate column; read-out: Percentage survival at 100um, 100 uM A
test_readout: activity at 100 µM (%)
Numbers only, in %.

Consider the worked cases shown below.
# value of activity at 100 µM, M. mycetomatis genome strain MM55, item `O=C1[C@H](CC[C@H](O)c2ccc(F)cc2)[C@@H](c2ccc(O)cc2)N1c1ccc(F)cc1` = -3.71

activity at 100 µM of `O=c1[nH]c(=O)n(Cc2cccc(Oc3ccccc3)c2)cc1Nc1ccccc1` , assay on M. mycetomatis genome strain MM55, is 90.6

The following compounds each have a reported value; give each one's activity at 100 µM.
1. Cc1nc2ccc(Cl)cc2c(-c2ccccc2)c1CC(=O)O
2. CC(=O)N1c2ccccc2NC2=C(C(=O)CC(C)(C)C2)C1c1ccc(OCc2ccccc2)cc1 (stereo not drawn)
3. Clc1ccc(Cn2c(CN3CCCC3)nc3ccccc32)cc1
4. COc1ccccc1CN[C@H]1C2CCN(CC2)[C@H]1C(c1ccccc1)c1ccccc1

Return:
[85.8, 99.3, 3.95, -1.66]

---

Record form. Attribute: activity at 100 µM. Fill in for each entry.
# Tested on: M. mycetomatis genome strain MM55
# assay_method_text: CLSI M38-A2 based in vitro susceptibility screening (XTT or resazurin), growth at fixed concentration
# Format: cell-based, Madurella mycetomatis
# experimental_conditions: Madurella mycetomatis, 100 uM, replicate (first column); read-out: Percentage survival at 100um, 100 uM A
Answers are plain numbers, in %.

Item: CC(C)c1ccc(COc2cccc(-c3cc([S+](C)[O-])c(C#N)c(=O)[nH]3)c2)cc1 (stereo not drawn) | System: M. mycetomatis genome strain MM55 | activity at 100 µM: 1.56

Hi, could you look up activity at 100 µM for each item in my list?
1. CCCCc1ccc(S(=O)(=O)Nc2cc(C)on2)cc1
2. O=C(CCc1ccc2c(c1)OCO2)NCc1ccc(-c2ccccc2F)cc1
3. O=C(NC(=O)N1CCCc2ccccc21)c1ccc(Cl)cc1Cl

Return:
[79.8, 79, 65.3]

---

# Test system: M. mycetomatis genome strain MM55
# assay_method_text: CLSI M38-A2 based in vitro susceptibility screening (XTT or resazurin), growth at fixed concentration
# Type: cell-based, Madurella mycetomatis
# experimental_conditions: Madurella mycetomatis, 25 uM, replicate A; read-out: Percentage survival at 25um, 25 um A
test_readout: activity at 25 µM (%)
Answers are plain numbers, in %.

Examples from the recorded data:
M. mycetomatis genome strain MM55 assay, compound `CCNC(=O)Nc1cn2c(-c3ncc(CC)cn3)cc(-c3cccnc3)cc2n1` , recorded activity at 25 µM = 109

Item: Cc1ncc([N+](=O)[O-])n1CC(O)CN1CCOCC1 (stereo not shown) | System: M. mycetomatis genome strain MM55 | activity at 25 µM: 99.4

Result for `NC(=O)c1cnccn1` , tested on M. mycetomatis genome strain MM55, activity at 25 µM: 89.2

For the compound `CCOCc1nc2c(N)nc3ccccc3c2n1CC(C)(C)O` , the measured activity at 25 µM on M. mycetomatis genome strain MM55 was 95.3

Summary line: `CC(C)(C)c1cc(C(=O)/C(C#N)=N/Nc2cccc(Cl)c2)no1` , M. mycetomatis genome strain MM55, reported activity at 25 µM = 95.6

Summary: `O=[N+]([O-])c1cn(Cc2nc(O)nc(O)c2Br)cn1` , M. mycetomatis genome strain MM55, activity at 25 µM = 98.9

Fill in: M. mycetomatis genome strain MM55 activity at 25 µM for `c1ccc(Cn2c(-c3ccccn3)nc3ccccc32)cc1` = 64.1

Entry Nc1nc(NC2Cc3ccc(F)cc3C2)nc(N2CCCCC2)n1 (stereo not shown) : activity at 25 µM on M. mycetomatis genome strain MM55 = 58.8

For every item below, please supply its activity at 25 µM.
1. CCc1cc(Cc2cnc(N)nc2N)cc2c1N(C)CCC2C (stereo not shown)
2. CCCCc1ccc(-c2cc(C(=O)O)cc(-c3ccc(Cl)cc3)n2)cc1
3. Cc1nc(Nc2ccc(F)cc2)nc(N2CCc3ccccc3C2C)c1C (stereo not shown)

Return:
[71.5, 3.56, 74.6]
